# measured.target: Signal transducer and activator of transcription 3 (Homo sapiens)
# Sequence (P40763 whole entry): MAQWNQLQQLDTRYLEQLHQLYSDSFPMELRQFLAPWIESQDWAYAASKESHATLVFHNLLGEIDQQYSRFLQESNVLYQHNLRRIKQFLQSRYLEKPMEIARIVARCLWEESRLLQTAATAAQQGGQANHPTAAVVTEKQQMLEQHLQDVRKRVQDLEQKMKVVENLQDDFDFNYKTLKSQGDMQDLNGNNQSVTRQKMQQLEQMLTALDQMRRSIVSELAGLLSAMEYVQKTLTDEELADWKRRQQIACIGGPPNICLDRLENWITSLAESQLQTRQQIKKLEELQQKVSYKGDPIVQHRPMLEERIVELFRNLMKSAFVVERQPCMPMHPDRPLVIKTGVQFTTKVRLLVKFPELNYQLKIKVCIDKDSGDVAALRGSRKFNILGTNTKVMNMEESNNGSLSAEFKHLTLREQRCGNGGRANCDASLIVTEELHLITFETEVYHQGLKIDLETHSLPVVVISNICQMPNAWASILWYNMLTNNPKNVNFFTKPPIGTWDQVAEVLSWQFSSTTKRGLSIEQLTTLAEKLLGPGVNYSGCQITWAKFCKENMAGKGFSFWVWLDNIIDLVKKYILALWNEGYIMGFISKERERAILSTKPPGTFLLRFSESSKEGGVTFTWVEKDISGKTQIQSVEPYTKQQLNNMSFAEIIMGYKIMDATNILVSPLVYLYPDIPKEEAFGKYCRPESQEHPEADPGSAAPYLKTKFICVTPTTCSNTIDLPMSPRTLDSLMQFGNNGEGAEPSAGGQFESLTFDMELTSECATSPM
# assay.summary: Inhibition of IL-6-induced STAT3 phosphorylation at Tyr705 in human HeLa cells by Western blot analysis
# Assay type: cell-based
readout: IC50 (µM)

[a] C=C1C2=C(C(=O)N1OC)[C@@H](O)[C@@](C)(O)[C@@H](CCCCC)O2
[b] C=C1C2=C(C(=O)N1OC)[C@@H](O)[C@@](C)(O)[C@H](CCCCC)O2
[c] C=C1C2=C(C(=O)N1OC)[C@H](O)[C@@](C)(O)[C@H](CCCCC)O2
Sort low-to-high on IC50, please. Please list the labels in the order you were asked to rank them.
a, c, b
(a: 9.2 µM, c: 13.5 µM, b: 20.2 µM)
